Data provenance is ChEMBL document CHEMBL3508693.

- Test target: CYP2C19 (Homo sapiens, UniProt P33261)
- Sequence (P33261 whole entry): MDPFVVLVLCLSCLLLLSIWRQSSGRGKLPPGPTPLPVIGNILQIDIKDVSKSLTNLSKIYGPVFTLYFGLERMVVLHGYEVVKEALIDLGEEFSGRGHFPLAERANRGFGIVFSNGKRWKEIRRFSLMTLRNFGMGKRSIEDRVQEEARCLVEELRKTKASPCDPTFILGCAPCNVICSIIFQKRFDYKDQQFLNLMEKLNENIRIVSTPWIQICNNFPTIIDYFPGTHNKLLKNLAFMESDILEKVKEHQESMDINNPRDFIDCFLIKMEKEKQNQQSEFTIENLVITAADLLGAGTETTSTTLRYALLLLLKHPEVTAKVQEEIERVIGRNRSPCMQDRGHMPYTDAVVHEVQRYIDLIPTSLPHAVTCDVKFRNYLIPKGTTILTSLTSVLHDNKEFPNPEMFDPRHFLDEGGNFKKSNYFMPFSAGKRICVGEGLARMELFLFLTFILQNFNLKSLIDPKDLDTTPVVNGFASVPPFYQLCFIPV
- Method description: Inhibitory activity of 200 uM SPP100 on 1156 Pmoles of cDNA-derived CYP2C19 enzyme in microsome prepared from human lymphoblastoid cell line
- Type: ADME, microsomes
- Parameters: conc 200 uM, interact cpd conc 50 uM
- Condition details: probe (S)-mephenytoin (50 uM)
Measured metric: inhibition at 200 µM (%)
Respond numerically; units are % and should not be typed.

Q: Suppose we examine the compound `COCCCOc1cc(C[C@@H](C[C@H](N)[C@@H](O)C[C@H](C(=O)NCC(C)(C)C(N)=O)C(C)C)C(C)C)ccc1OC` ; what inhibition at 200 µM value has been reported?
Result: 3

* * *

- Method description: AUC(0-24h) of aliskiren hemifumarate following 2 week oral dosing of aliskiren hemifumarate at 10 mg.Kg-1 level studied on day 1 in female Callithrix jacchus
- Type: ADME, organism-based
- Condition details: marmoset, plasma
Measured metric: AUC(0-t) at 24 h (ng·h/mL)
Respond numerically; units are ng·h/mL and should not be typed.

Q: Suppose we examine the compound COCCCOc1cc(C[C@@H](C[C@H](N)[C@@H](O)C[C@H](C(=O)NCC(C)(C)C(N)=O)C(C)C)C(C)C)ccc1OC.COCCCOc1cc(C[C@@H](C[C@H](N)[C@@H](O)C[C@H](C(=O)NCC(C)(C)C(N)=O)C(C)C)C(C)C)ccc1OC.O=C(O)/C=C/C(=O)O [ALISKIREN FUMARATE] ; what AUC(0-t) at 24 h value has been reported?
Result: 21300

* * *

- Method description: AUC(0-24h) of aliskiren hemifumarate following 2 week oral dosing of aliskiren hemifumarate at 10 mg.Kg-1 level studied on […] in male Callithrix jacchus
- Assay type: ADME, organism-based
- Condition details: marmoset, plasma
Measured metric: AUC at 24 h (ng·h/mL)
Respond numerically; units are ng·h/mL and should not be typed.

Q: Suppose we examine the compound COCCCOc1cc(C[C@@H](C[C@H](N)[C@@H](O)C[C@H](C(=O)NCC(C)(C)C(N)=O)C(C)C)C(C)C)ccc1OC.COCCCOc1cc(C[C@@H](C[C@H](N)[C@@H](O)C[C@H](C(=O)NCC(C)(C)C(N)=O)C(C)C)C(C)C)ccc1OC.O=C(O)/C=C/C(=O)O [ALISKIREN FUMARATE] ; what AUC at 24 h value has been reported?
Result: 33900

* * *

- Method description: AUC (0-96 or 0-168h) of unlabeled aliskiren hemifumarate following single intravenous administration of aliskiren hemifumarate at 1 mg.Kg-1 level in marmoset
- Type: ADME, organism-based, Callithrix jacchus
- Condition details: plasma
Measured metric: AUC at 168 h (µM·h)
Respond numerically; units are µM·h and should not be typed.

Q: Suppose we examine the compound COCCCOc1cc(C[C@@H](C[C@H](N)[C@@H](O)C[C@H](C(=O)NCC(C)(C)C(N)=O)C(C)C)C(C)C)ccc1OC.COCCCOc1cc(C[C@@H](C[C@H](N)[C@@H](O)C[C@H](C(=O)NCC(C)(C)C(N)=O)C(C)C)C(C)C)ccc1OC.O=C(O)/C=C/C(=O)O [ALISKIREN FUMARATE] ; what AUC at 168 h value has been reported?
Result: 49

* * *

- Test target: CYP2E1 (Homo sapiens, UniProt P05181)
- Sequence (P05181 whole entry): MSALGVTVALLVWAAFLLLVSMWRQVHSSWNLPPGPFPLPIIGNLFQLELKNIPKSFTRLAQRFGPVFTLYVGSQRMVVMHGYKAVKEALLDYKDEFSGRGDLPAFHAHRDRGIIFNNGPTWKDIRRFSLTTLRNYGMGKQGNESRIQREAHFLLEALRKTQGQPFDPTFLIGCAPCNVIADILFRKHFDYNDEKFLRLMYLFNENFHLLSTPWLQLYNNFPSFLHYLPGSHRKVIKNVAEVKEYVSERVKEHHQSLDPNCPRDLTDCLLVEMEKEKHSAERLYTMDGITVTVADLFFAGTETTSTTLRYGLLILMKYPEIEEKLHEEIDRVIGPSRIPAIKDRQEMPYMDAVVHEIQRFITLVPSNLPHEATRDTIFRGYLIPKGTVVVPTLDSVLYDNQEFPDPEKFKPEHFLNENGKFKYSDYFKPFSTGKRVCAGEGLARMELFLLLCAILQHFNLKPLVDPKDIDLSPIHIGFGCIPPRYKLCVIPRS
- Method description: Inhibition of CYP2E1 in human liver microsomes from 10 healthy donors at 200 uM aliskiren (SPP100)
- Assay type: ADME, Microsome
- Design: conc 200 uM
- Condition details: probe chlorzoxazone (6-hydroxylation)
Measured metric: inhibition at 200 µM (%)
Respond numerically; units are % and should not be typed.

Q: Suppose we examine the compound `COCCCOc1cc(C[C@@H](C[C@H](N)[C@@H](O)C[C@H](C(=O)NCC(C)(C)C(N)=O)C(C)C)C(C)C)ccc1OC` ; what inhibition at 200 µM value has been reported?
Result: -12.8

* * *

- Method description: AUC (0-24h) of aliskiren hemifumarate following 4 week oral dietary dosing of aliskiren hemifumarate at 1500 mg.Kg-1 level in male mouse
- Type: ADME, organism-based
- Condition details: CB6F1-TGrasH2, mouse, plasma
Measured metric: AUC(0-t) at 24 h
State the value, then name its unit.

Q: Suppose we examine the compound COCCCOc1cc(C[C@@H](C[C@H](N)[C@@H](O)C[C@H](C(=O)NCC(C)(C)C(N)=O)C(C)C)C(C)C)ccc1OC.COCCCOc1cc(C[C@@H](C[C@H](N)[C@@H](O)C[C@H](C(=O)NCC(C)(C)C(N)=O)C(C)C)C(C)C)ccc1OC.O=C(O)/C=C/C(=O)O [ALISKIREN FUMARATE] ; what AUC(0-t) at 24 h value has been reported?
Result: 4140 ng·h/mL

* * *

- Method description: t1/2 of aliskiren hemifumarate following 2 week oral dosing of aliskiren hemifumarate at 100 mg.Kg-1 level studied on day 14 in male Callithrix jacchus
- Type: ADME, organism-based
- Condition details: marmoset, plasma
Measured metric: half-life (h)
Respond numerically; units are h and should not be typed.

Q: Suppose we examine the compound COCCCOc1cc(C[C@@H](C[C@H](N)[C@@H](O)C[C@H](C(=O)NCC(C)(C)C(N)=O)C(C)C)C(C)C)ccc1OC.COCCCOc1cc(C[C@@H](C[C@H](N)[C@@H](O)C[C@H](C(=O)NCC(C)(C)C(N)=O)C(C)C)C(C)C)ccc1OC.O=C(O)/C=C/C(=O)O [ALISKIREN FUMARATE] ; what half-life value has been reported?
Result: 7.8

* * *

- Test target: CYP2A6 (Homo sapiens, UniProt P11509)
- Sequence (P11509 whole entry): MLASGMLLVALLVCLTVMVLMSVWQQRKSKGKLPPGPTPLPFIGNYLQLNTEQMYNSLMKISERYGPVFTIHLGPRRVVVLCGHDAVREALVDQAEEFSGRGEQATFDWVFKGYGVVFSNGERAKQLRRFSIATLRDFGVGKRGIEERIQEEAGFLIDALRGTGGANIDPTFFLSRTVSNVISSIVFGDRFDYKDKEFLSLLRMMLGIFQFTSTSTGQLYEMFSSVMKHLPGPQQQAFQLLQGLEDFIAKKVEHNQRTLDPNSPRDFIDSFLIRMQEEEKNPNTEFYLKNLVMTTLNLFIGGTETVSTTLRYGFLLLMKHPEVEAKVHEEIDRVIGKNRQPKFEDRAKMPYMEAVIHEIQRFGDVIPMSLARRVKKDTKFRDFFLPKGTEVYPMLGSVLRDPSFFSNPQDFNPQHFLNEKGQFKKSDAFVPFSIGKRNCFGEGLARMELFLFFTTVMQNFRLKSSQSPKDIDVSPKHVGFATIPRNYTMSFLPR
- Method description: Inhibitory activity of 200 uM SPP100 on 37 Pmoles of cDNA-derived CYP2A6 enzyme in microsome prepared from human lymphoblastoid cell line
- Assay type: ADME, microsomes
- Set-up: conc 200 uM, interact cpd conc 3 uM
- Condition details: probe coumarine
Measured metric: inhibition at 200 µM (%)
Respond numerically; units are % and should not be typed.

Q: Suppose we examine the compound `COCCCOc1cc(C[C@@H](C[C@H](N)[C@@H](O)C[C@H](C(=O)NCC(C)(C)C(N)=O)C(C)C)C(C)C)ccc1OC` ; what inhibition at 200 µM value has been reported?
Result: 2.6

* * *

- Method description: AUC (0-24h) of aliskiren hemifumarate following 4 week oral dietary dosing of aliskiren hemifumarate at 2000 mg.Kg-1 level in male mouse
- Type: ADME, organism-based
- Condition details: CB6F1-TGrasH2, mouse, plasma
Measured metric: AUC(0-t) at 24 h (ng·h/mL)
Respond numerically; units are ng·h/mL and should not be typed.

Q: Suppose we examine the compound COCCCOc1cc(C[C@@H](C[C@H](N)[C@@H](O)C[C@H](C(=O)NCC(C)(C)C(N)=O)C(C)C)C(C)C)ccc1OC.COCCCOc1cc(C[C@@H](C[C@H](N)[C@@H](O)C[C@H](C(=O)NCC(C)(C)C(N)=O)C(C)C)C(C)C)ccc1OC.O=C(O)/C=C/C(=O)O [ALISKIREN FUMARATE] ; what AUC(0-t) at 24 h value has been reported?
Result: 7720

* * *

- Method description: Tmax of aliskiren hemifumarate following single dosing of SPP100B oral solution at 80 mg level studied on day 1 in men
- Type: ADME, organism-based
- Condition details: male, human, plasma
Measured metric: Tmax (h)
Respond numerically; units are h and should not be typed.

Q: Suppose we examine the compound COCCCOc1cc(C[C@@H](C[C@H](N)[C@@H](O)C[C@H](C(=O)NCC(C)(C)C(N)=O)C(C)C)C(C)C)ccc1OC.COCCCOc1cc(C[C@@H](C[C@H](N)[C@@H](O)C[C@H](C(=O)NCC(C)(C)C(N)=O)C(C)C)C(C)C)ccc1OC.O=C(O)/C=C/C(=O)O [ALISKIREN FUMARATE] ; what Tmax value has been reported?
Result: 2.8

* * *

- Test target: CYP2C19 (Homo sapiens, UniProt P33261)
- Method description: Inhibitory activity of 20 uM SPP100 on 1131 Pmoles of cDNA-derived CYP2C19 enzyme in microsome prepared from human lymphoblastoid cell line
- Assay type: ADME, microsomes
- Design: conc 20 uM, interact cpd conc 50 uM
- Condition details: probe (S)-mephenytoin
Measured metric: inhibition at 20 µM (%)
Respond numerically; units are % and should not be typed.

Q: Suppose we examine the compound `COCCCOc1cc(C[C@@H](C[C@H](N)[C@@H](O)C[C@H](C(=O)NCC(C)(C)C(N)=O)C(C)C)C(C)C)ccc1OC` ; what inhibition at 20 µM value has been reported?
Result: 5.1

* * *

- Method description: Cmax of aliskiren hemifumarate following 4 week oral dietary dosing of aliskiren hemifumarate at 2000 mg.Kg-1 level in male mouse
- Format: ADME, organism-based
- Condition details: CB6F1-TGrasH2, mouse, in vivo
Measured metric: Cmax
State the value, then name its unit.

Q: Suppose we examine the compound COCCCOc1cc(C[C@@H](C[C@H](N)[C@@H](O)C[C@H](C(=O)NCC(C)(C)C(N)=O)C(C)C)C(C)C)ccc1OC.COCCCOc1cc(C[C@@H](C[C@H](N)[C@@H](O)C[C@H](C(=O)NCC(C)(C)C(N)=O)C(C)C)C(C)C)ccc1OC.O=C(O)/C=C/C(=O)O [ALISKIREN FUMARATE] ; what Cmax value has been reported?
Result: 439 ng/mL
